composite z-score by entry:
# assayInfo: small molecules captured by biotinylated probe aFSTL3 – biochemical, small-molecule microarray, fluorescence 635/667, stem cell growth factor project, primary screen (AID 1064);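 further: measures binding of the biotinylated anti-FSTL3 antibody to printed compounds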
# measurementSetup: higher = more signal
Answer with a number only.

compound	composite z-score
COc1ccc([Si](C)(C)[C@H]2[C@H](CCO)O[C@@]3(C(=O)N(Cc4ccccc4)c4ccc(N5CCCCC5=O)cc43)[C@@H]2C)cc1	-0.347
COC(=O)[C@@]1(Cc2ccccc2)[C@H]2c3cc(C(=O)N4CCCC4)n(Cc4ccc(O)c(OC)c4)c3C[C@H]2CN1C(=O)c1ccccc1	0.528
COc1cc2c(cc1O)C(c1cccs1)N(Cc1cccc(OC(F)(F)F)c1)CC2 (stereo not given)	0.0011
O=C1NC(=O)C2C1C=CC(C(O)c1ccc(-c3ccccc3)s1)N2Nc1ccc(Cl)cc1Cl (stereo not given)	0.0065
[N-]=[N+]=Nc1ccccc1[C@H]1OC(c2ccc(OCCCO)cc2)=N[C@@]1(CCS(=O)(=O)c1ccccc1)C(=O)NCc1ccccc1	-0.196

According to the records, this compound "COCCCNC(=O)[C@@H]1c2ccccc2C(=O)N(Cc2ccccc2OC)[C@H]1c1ccc(CO)cc1" displays composite z-score of -0.169

O=C1OCC=C[C@H]2OC34C=CCN(CCN5CCOCC5)C(=O)[C@H]3N(CCO)C(=O)[C@@H]4[C@@H]12 (stereo not given in full) has a reported composite z-score of -0.341

The compound listed as "C=CC[C@]1(C(=O)NCc2ccccc2)N=C(c2ccc(OCCCO)cc2)O[C@H]1c1ccccc1CN=[N+]=[N-]" has a reported composite z-score of 0.0143

Field composite z-score (entry "C=C(/C(=C/C[C@H](OC(C)=O)c1ccc(OCCO)cc1)c1cc(C(=O)OC)ccc1OC)C(C)C" ) reads -0.183

The recorded composite z-score for "C=CCNC(=O)[C@H]1[C@@H]2C(=O)O[C@@H](c3ccccc3)[C@@H](c3ccccc3)N2[C@@H](c2ccc(OCCO)cc2)[C@]12C(=O)Nc1ccc(C#CCC(C(=O)OC)C(=O)OC)cc12" is -0.378

composite z-score recorded for this compound, "CCOC(=O)C1=CC[C@@H](c2ccc(C(F)(F)F)cc2)N(S(=O)(=O)c2ccc(C)cc2)[C@H]1c1ccccc1" , is 0.371

Just so you know, measured composite z-score for "CC[C@@H]1C=C(C(=O)O)[C@H](c2ccc(C)cc2)N1S(=O)(=O)c1ccc(C)cc1" came out at -0.139

// field: composite z-score; key: "NCCCCCNC(=O)[C@H]1C[C@H]2C(=O)N3CCC[C@H]3C(=O)N2[C@H]1c1ccc(O)cc1" ; value = 1.39

====

# assaySystem: Neurogenic locus notch homolog protein 3 (Homo sapiens) (UniProt Q9UM47)
# Sequence (Q9UM47 whole entry, looked up): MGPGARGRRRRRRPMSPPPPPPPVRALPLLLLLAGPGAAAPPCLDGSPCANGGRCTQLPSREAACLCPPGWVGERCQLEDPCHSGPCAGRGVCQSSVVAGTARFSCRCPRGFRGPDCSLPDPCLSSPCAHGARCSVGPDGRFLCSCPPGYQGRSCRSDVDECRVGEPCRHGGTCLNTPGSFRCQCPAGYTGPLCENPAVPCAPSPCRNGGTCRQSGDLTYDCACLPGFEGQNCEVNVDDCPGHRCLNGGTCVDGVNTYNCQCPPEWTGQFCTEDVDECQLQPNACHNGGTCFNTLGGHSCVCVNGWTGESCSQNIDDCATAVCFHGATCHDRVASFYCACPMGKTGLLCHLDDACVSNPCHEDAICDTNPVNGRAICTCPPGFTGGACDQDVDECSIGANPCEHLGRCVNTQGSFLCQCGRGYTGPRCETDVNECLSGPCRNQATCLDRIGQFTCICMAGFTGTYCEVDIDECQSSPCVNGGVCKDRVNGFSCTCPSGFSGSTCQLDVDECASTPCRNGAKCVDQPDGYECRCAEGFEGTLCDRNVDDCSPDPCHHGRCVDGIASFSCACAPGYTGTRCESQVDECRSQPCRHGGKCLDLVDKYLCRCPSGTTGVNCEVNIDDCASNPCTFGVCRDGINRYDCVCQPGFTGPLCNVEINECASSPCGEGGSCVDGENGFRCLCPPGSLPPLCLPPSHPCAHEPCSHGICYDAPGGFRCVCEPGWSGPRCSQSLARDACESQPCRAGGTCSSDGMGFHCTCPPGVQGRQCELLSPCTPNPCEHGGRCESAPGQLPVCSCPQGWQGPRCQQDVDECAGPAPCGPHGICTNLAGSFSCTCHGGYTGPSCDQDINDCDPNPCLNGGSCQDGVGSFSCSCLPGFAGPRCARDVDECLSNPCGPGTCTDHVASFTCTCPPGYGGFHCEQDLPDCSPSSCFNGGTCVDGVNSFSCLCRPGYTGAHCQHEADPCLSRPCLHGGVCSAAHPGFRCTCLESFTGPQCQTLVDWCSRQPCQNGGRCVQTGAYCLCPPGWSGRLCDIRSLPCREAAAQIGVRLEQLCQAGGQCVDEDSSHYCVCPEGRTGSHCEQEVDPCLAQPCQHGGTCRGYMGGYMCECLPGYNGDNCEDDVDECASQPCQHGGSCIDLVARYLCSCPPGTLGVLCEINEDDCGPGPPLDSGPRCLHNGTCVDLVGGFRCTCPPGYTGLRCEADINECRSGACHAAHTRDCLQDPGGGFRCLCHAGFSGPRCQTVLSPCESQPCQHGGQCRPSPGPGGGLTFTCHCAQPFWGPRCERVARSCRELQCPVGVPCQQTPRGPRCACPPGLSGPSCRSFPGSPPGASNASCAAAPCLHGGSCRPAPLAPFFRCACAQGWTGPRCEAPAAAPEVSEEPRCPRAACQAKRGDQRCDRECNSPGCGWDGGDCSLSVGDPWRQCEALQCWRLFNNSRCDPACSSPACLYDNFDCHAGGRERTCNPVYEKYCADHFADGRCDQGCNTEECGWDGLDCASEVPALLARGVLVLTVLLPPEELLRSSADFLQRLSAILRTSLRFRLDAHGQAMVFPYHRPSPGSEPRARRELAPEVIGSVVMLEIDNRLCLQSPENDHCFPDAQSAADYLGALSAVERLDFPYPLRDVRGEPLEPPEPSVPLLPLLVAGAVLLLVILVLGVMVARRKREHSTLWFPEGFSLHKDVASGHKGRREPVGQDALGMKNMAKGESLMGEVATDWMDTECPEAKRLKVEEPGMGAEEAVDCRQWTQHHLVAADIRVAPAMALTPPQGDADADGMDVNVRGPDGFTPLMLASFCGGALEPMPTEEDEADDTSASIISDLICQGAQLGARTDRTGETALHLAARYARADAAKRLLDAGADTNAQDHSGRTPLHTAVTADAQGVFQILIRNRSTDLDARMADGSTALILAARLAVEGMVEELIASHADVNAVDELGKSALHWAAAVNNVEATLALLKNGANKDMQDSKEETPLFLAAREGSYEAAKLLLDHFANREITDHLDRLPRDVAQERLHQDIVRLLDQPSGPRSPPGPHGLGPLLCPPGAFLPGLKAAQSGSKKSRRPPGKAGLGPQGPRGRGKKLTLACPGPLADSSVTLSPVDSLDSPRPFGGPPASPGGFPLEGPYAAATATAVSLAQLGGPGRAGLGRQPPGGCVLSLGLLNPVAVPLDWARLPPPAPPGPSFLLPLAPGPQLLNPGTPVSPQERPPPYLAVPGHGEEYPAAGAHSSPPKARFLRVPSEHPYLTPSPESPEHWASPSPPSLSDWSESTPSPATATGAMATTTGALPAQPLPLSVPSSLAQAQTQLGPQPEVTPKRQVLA
# assayInfo: small molecules binding NOTCH3 protein – biochemical, 635/667 nm fluorescence, primary screen (AID 1096)
# measurementSetup: small-molecule microarray, 635 nm fluorescence, higher = more signal
The following molecules are shown together with reported composite z-score values.

Examples with answers:
molecule	endpointLabel	testValue
C=CCNC(=O)[C@H]1[C@@H]2C(=O)O[C@@H](c3ccccc3)[C@@H](c3ccccc3)N2[C@@H](c2ccc(OCCO)cc2)[C@]12C(=O)Nc1ccc(C#CCC(C(=O)OC)C(=O)OC)cc12	composite z-score	1.08
COC(=O)[C@]1(Cc2ccccc2)N=C(c2ccc(OCCCO)cc2)O[C@@H]1c1ccccc1N=[N+]=[N-]	composite z-score	0.58
CCCCN1CC=CC23O[C@@H]4C=CCCOC(=O)C4[C@H]2C(=O)N(CCCCCO)[C@@H]3C1=O (some centres not stated)	composite z-score	-0.73
COc1ccc([C@H]2C[C@H]3C(Br)=C[C@@]2(CO)C(=O)[C@]32CO2)cc1	composite z-score	-0.534

Field composite z-score (entry "C=CCNC(=O)[C@H]1[C@@H]2C(=O)O[C@@H](c3ccccc3)[C@@H](c3ccccc3)N2[C@@H](c2ccc(O)cc2)[C@]12C(=O)Nc1ccc(C#CCCO)cc12" ) reads -0.356

The recorded composite z-score for O=C1NC(=O)C2C1C=CC(C(O)c1ccc(-c3ccccc3)s1)N2Nc1ccc(Cl)cc1Cl (configuration not stated) is 0.983

Entry "CN(C)C(=O)[C@]1(Cc2ccccc2)N=C(c2ccc(OCCCO)cc2)O[C@@H]1c1ccccc1N=[N+]=[N-]" , composite z-score reported as 1.12

====

# assayInfo: Pseudomonas biofilm growth suppression – PAO1 strain, BacTiter-Glo luminescence, LB-PBS, primary screen (AID 1144)
# measurementSetup: P. aeruginosa PAO1 biofilm, 12 h, higher = more signal
Here the recorded z-score is given for each entry.
Just the number, please, no unit after it.

Query "CN(C)CCCC[C@@H]1NC(=O)[C@H]2C[C@@H](C(=O)NCCCCCN)[C@@H](c3cccc(OCCO)c3)N2C1=O" yields z-score of 0.767

Recorded result, "COCCOC(=O)N1C(=O)[C@@]2(c3cc(C#CCCO)ccc31)[C@H](c1ccc(OCCO)cc1)N1[C@H](c3ccccc3)[C@H](c3ccccc3)OC(=O)[C@H]1[C@@H]2C(N)=O" , z-score: 0.502

Briefly, z-score measured for "COC(=O)c1c(CC[C@@H](CO)NC(=O)NCCc2c[nH]c3ccccc23)oc(C(=O)Cc2ccccc2)c1C(=O)OC" : 0.604

====

# composite z-score values compiled below
# assaySystem: Concanavalin-A (Canavalia ensiformis) (UniProt P02866)
# Sequence (P02866 whole entry, looked up): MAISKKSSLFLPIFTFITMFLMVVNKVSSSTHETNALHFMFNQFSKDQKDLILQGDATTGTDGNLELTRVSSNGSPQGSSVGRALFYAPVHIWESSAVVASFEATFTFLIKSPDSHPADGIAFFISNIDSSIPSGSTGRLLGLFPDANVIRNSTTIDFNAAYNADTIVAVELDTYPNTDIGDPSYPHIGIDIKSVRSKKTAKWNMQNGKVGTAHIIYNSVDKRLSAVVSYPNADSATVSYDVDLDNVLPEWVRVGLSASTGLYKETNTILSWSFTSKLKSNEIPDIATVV
# assayInfo: compounds binding concanavalin A lectin – biochemical, small-molecule microarray, Alexa647 label, 635 nm, artefact control for SMM control protein annotation, primary screen (AID 1127);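 further: z combines 667 nm emission intensity with signal-to-noise across three replicate slides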
# measurementSetup: ConA-A647 binding fluorescence, higher = more signal

molecule	composite z-score
COC(=O)[C@@]1(Cc2ccc(F)cc2)[C@H]2c3cc(C(=O)N(C)C)n(Cc4ccc(C)o4)c3C[C@H]2CN1C(=O)c1ccccc1	-1.67
CN1C(=O)C2C=CC(C(O)c3c(F)cccc3Cl)N(NC(=O)OC(C)(C)C)C2C1=O (centres undefined)	0.918
COC(=O)[C@@]1(Cc2ccccc2)[C@H]2c3cc(C(=O)N(C)C)n(CCc4c[nH]c5ccc(O)cc45)c3C[C@H]2CN1C(=O)c1ccccc1	0.0221

Pending molecule:
Lab note: measured composite z-score of "CC(C)[Si](C#CCCCC#N)(O[C@H](c1ccccc1)c1cn(Cc2cccc(Cl)c2)nn1)C(C)C" was 0.0848

====

# System: Noggin (protein binding on small-molecule microarray)
# assayInfo: small molecules binding Noggin protein – biochemical, 635/667 nm fluorescence, primary screen (AID 1095);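 further: score merges 667 nm feature fluorescence with signal to noise over triplicate slides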
# measurementSetup: 635 nm fluorescence, higher = more signal
Label MET when composite z-score is at or above 0.4; otherwise label NOT MET.

Consider the following illustrative entries.
compound	assaySystem	classAssignment
NCCCCCNC(=O)[C@H]1C[C@H]2C(=O)N[C@@H](Cc3ccccc3)C(=O)N2[C@H]1c1cccc(OCCO)c1	Noggin (protein binding on small-molecule microarray)	NOT MET
C=C(/C(=C/C[C@H](OC(C)=O)c1ccc(OCCO)cc1)c1cc(C(=O)OC)ccc1OC)C(C)C	Noggin (protein binding on small-molecule microarray)	MET
O=C1NC(=O)C2C1C=CC(C(O)C=Cc1ccc([N+](=O)[O-])cc1)N2Nc1ccc(Cl)cc1Cl (configuration not stated)	Noggin (protein binding on small-molecule microarray)	NOT MET
COC(=O)[C@@]1(CCC(=O)OC(C)(C)C)N=C(c2ccc(OCCCO)cc2)O[C@H]1c1ccccc1	Noggin (protein binding on small-molecule microarray)	NOT MET
CCOC(=O)C[C@H]1[C@H](OC(=O)c2ccc(-c3ccccc3)cc2)[C@@H](NC(=O)c2ccccc2)c2cc(OCCCO)ccc2N1C(=O)Cc1ccc(OC)cc1	Noggin (protein binding on small-molecule microarray)	NOT MET

Now look at this one.
## Input Has "COC(=O)[C@]1(Cc2ccccc2)N=C(c2ccc(OCCCO)cc2)O[C@@H]1c1ccccc1N=[N+]=[N-]" a recorded composite z-score greater than or equal to 0.4?
## Output MET

====

# assaySystem: Neurogenic locus notch homolog protein 3 (Homo sapiens)
# assayInfo: small molecules binding NOTCH3 protein – biochemical, 635/667 nm fluorescence, primary screen (AID 1096)
# measurementSetup: small-molecule microarray, 635 nm fluorescence, higher = more signal
endpointLabel: composite z-score
// no unit string in output, number only

# annotated cases, reported composite z-score shown
compound	composite z-score
COCCOC(=O)N1C(=O)[C@@]2(c3cc(C#CC4=CCCCC4)ccc31)[C@H](c1ccc(OCCO)cc1)N1[C@H](c3ccccc3)[C@H](c3ccccc3)OC(=O)[C@H]1[C@@H]2C(=O)N1CCc2cc(OC)c(OC)cc2C1	1.06
Cc1ccc(S[C@]2(C(=O)O)CC(=O)N(C(C)C)[C@@H]2c2ccc(CO)cc2)cc1	-0.229
CC(C)(C)OC(=O)CC[C@]1(C(=O)NCCN2CCOCC2)COC(c2ccc(OCCCO)cc2)=N1	1.03

Short answer for COc1cc2c(cc1O)C(c1cccs1)N(Cc1ccc([N+](=O)[O-])o1)CC2 (centres undefined) : composite z-score was 0.32
